Assay: self-splicing fitness, log relative to wild type (ln ratio); higher = more splicing; Tetrahymena group I intron in knt gene, E. coli kanamycin selection, DiMSum; sequences stand for … in CUCUCU…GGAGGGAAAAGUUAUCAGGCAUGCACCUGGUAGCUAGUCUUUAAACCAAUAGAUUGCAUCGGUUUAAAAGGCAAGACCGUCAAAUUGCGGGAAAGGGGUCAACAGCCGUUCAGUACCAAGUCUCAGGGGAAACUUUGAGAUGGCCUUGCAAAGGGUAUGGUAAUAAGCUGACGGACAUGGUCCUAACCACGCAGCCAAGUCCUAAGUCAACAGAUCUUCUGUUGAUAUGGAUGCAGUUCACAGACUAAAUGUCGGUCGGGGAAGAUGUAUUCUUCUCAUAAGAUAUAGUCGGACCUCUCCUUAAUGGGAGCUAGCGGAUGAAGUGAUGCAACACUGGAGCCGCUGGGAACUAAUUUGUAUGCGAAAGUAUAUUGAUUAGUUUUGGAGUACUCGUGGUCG;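 also: selection with 25 µg/mL kanamycin versus none on LB agar overnight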
Conditions: 30 °C
Given measured self-splicing fitness (ln), output t if it is greater than or equal to -3 and f if not.

Some solved entries appear below for comparison.
INSERT INTO measurements (monomersequence, answerlabel) VALUES
  ('UUCGAGCAAUAUUACGUUUC', 'f'),
  ('CUAGAGCAAUAUUACGUGCA', 'f'),
  ('CGGCAGCAAUAUUACGCCUC', 'f'),
  ('UCUCAGCAAUAUUACGCUAC', 'f'),
  ('CAGAAGCAAUAUUACGCACA', 't');

Exam item: decide whether the reported self-splicing fitness (ln) for `CGUGAGCAAUAUUACGUGUG` is at least -3.
t

Try the sequence `GACCAGCAAUAUUACGUUUC`
t
